B1: SPDEF (parent)
chain: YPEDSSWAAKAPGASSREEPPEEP

- Variants of: B1
- Run description: protein stability index of a GFP-peptide fusion (GPS, HEK-293T) (PSI 1-6); higher = more stable;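 also: lentivirally expressed fusions sorted by FACS into six bins by GFP to DsRed ratio, PSI derived from sequencing read proportions per bin multiplied by bin number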
- Experimental context: c terminus: a fixed tail appended
Decision: protein stability index compared against 4; not below it gives yes, below it gives no.

Mutant label: E22Y
Label value: no
//
Mutant label: E19C
Label value: no
//
Mutant label: Y1M
Label value: yes
//
Mutant label: A8N
Label value: yes
//
Mutant label: A11Y
Label value: no
//
Mutant label: S16V
Label value: no
//
Mutant label: A8L
Label value: yes
//
Mutant label: P12C
Label value: no
//
Mutant label: G13F
Label value: no
//
Mutant label: Y1K
Label value: yes
//
Mutant label: E19Q
Label value: no
//
Mutant label: S5C
Label value: no
//
Mutant label: P21W
Label value: no
//
Mutant label: R17M
Label value: yes
//
Mutant label: S15Q
Label value: no
//
Mutant label: P2N
Label value: yes
//
Mutant label: E3S
Label value: no
//
Mutant label: P12M
Label value: no
//
Mutant label: E19D
Label value: no
